SYSTEM UNDER TEST: UniProt P50406
Sequence (P50406 whole entry): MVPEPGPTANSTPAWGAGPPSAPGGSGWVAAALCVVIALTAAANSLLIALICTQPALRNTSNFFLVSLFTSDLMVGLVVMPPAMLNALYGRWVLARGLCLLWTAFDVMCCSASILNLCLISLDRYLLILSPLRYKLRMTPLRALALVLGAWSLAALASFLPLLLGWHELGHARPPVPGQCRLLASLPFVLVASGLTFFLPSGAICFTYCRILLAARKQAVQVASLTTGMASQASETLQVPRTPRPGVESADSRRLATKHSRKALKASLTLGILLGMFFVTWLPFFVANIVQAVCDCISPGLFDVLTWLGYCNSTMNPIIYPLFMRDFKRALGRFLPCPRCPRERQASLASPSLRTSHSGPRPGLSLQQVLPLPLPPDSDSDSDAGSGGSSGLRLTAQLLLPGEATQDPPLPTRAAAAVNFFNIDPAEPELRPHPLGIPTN
TEST SUMMARY: 5-HT6 radioligand binding assay (SPA format, [N-methyl-3H]-LSD)
APPLIED CONDITIONS: human 5-HT6 receptor membranes, 10 nM [N-methyl-3H]-LSD; Ki by Cheng-Prusoff; read-out: human 5HT6 Ki
pKi: −log10 of the molar value.
Given measured pKi, output Condition met if it is greater than or equal to 8 and Condition not met if not.

> print(dat)
                                   molecule  system.under.test  assigned.category
1  COc1cc(S(=O)(=O)c2ccc3c(c2)COC3)cc2c3c(oc12)CCNC3     UniProt P50406      Condition met

Does the molecule `NC(=O)c1cc(S(=O)(=O)c2ccccc2)cc2c3c(oc12)CCNC3` have recorded pKi that is 8 or more?
Condition not met

Does the molecule `N#Cc1cc(S(=O)(=O)c2cccc(Cl)c2)cc2c3c(oc12)CCNC3` have recorded pKi that is 8 or more?
Condition met

Does the molecule `O=S(=O)(c1ccc2sccc2c1)c1cc(Cl)c2oc3c(c2c1)CNCC3` have recorded pKi that is 8 or more?
Condition met

Does the molecule O=S(=O)(c1ccccc1)c1cc(Cl)c2oc3c(c2c1)CC(O)CC3 (single isomer, unassigned; (-)) [Example 98] have recorded pKi that is 8 or more?
Condition not met

Data origin, for the record: patent US9067949B2
